Target: rat collagen (acid soluble, type I, rat tail, Upstate 08-115) (rat) (UniProt P02454)
Sequence (P02454 152-1207 limits assumed, chain 1 of 2): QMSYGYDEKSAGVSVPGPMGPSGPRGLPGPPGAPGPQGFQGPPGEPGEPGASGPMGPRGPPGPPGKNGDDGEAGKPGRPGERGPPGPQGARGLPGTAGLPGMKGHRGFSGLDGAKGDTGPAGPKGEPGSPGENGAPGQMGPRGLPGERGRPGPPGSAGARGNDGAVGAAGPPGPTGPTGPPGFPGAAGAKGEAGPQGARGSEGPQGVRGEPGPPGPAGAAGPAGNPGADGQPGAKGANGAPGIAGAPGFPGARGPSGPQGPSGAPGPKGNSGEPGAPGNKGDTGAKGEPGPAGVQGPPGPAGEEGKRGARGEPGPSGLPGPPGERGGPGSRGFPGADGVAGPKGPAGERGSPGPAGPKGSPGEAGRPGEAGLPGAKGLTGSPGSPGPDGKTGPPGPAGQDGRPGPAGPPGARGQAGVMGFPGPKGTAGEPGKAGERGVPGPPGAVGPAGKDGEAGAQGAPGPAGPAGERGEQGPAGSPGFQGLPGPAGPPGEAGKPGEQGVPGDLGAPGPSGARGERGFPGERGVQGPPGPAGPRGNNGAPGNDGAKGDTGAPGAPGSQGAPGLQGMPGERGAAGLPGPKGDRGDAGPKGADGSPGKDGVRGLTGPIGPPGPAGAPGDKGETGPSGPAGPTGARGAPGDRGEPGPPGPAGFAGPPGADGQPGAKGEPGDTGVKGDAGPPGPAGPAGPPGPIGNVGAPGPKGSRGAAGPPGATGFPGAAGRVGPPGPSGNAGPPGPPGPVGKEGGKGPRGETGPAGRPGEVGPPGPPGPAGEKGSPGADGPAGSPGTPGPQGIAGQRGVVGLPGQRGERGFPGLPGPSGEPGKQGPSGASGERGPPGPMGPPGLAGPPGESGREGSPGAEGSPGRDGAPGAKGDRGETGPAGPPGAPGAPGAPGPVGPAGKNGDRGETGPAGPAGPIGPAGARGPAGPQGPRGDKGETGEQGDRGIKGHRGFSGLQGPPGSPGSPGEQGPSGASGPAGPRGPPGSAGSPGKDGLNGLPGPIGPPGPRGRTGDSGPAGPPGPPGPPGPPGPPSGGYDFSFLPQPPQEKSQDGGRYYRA
Sequence (P02466 86-1125 limits assumed, chain 2 of 2, further chain): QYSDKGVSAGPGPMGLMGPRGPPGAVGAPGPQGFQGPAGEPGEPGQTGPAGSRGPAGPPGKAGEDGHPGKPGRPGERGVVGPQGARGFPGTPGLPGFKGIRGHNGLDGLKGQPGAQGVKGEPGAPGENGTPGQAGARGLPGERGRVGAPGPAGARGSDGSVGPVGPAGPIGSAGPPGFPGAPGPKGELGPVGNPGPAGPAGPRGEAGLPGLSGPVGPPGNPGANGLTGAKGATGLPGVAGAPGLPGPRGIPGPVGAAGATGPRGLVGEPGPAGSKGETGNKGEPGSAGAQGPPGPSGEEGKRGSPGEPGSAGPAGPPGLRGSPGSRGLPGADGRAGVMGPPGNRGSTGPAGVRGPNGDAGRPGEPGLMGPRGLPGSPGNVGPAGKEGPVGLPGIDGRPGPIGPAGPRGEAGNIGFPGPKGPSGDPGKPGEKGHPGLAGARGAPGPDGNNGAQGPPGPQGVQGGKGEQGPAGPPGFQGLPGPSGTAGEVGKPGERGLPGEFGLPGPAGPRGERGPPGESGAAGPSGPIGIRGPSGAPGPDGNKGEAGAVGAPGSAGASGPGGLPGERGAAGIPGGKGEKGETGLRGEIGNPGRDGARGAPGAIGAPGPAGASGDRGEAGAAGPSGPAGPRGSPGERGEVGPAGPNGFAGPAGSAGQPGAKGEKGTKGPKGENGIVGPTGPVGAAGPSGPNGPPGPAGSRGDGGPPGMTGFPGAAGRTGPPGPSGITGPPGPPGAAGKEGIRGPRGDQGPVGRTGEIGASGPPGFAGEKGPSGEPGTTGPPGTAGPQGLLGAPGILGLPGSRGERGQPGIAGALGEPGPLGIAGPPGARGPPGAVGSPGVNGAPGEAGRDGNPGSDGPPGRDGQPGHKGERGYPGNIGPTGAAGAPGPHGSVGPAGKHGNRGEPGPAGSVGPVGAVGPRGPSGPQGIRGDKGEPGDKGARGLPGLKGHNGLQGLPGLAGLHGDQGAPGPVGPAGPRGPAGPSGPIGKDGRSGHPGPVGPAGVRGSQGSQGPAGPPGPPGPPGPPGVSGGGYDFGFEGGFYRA
Assay: dried collagen assay
Bridge positions count the residues as written; N and C are the ends. Square brackets hold non-standard residues; d marks the D form. Primed or numbered codes have the meaning given here. Ends that are not written are not given here. * marks the point of attachment. Tyr(3-I) = N[C@@H](Cc1ccc(O)c(I)c1)C(=O)O; Gd^T = not defined here; Gd^T″ = GdDTPA-thiourea; Cbz = O=C(OCc1ccccc1)*
PARAMETER: % bound (%)

Solved entries:
>>> test_result("Cbz-GQWHCTK(Gd^T″)RFPHHYCLYG (disulfide 5-14 (inferred); not fully specified (C-terminus); printed as cbz-GQWHCT-K(Gd^T)-RFPHHYCLYG) [Comp ID 940]")
8
>>> test_result("{Gd^T}-DWTCS[dA]DEYTWHCNYE (disulfide 4-13 (inferred); not fully specified (C-terminus); printed as Gd^T-DWTCSaDEYTWHCNYE; reading uncertain) [Comp ID 835]")
9
>>> test_result("{Gd^T″}-GQWTCSGDEYTWACNYE (disulfide 5-14 (inferred)) [Comp ID 833]")
4
>>> test_result("{Gd^T″}-DWTCSGDEYYWHCNYE (disulfide 4-13 (inferred)) [Comp ID 834]")
9
>>> test_result("DWTCSGDEYRWHCNYE (not fully specified; Gd^T-DWTCSGDEYRWHCNYE) [Comp ID 845]")
10
>>> test_result("{Gd^T}-DWTCSGDE[Tyr(3-I)]TWHCNYE (disulfide 4-13 (inferred); not fully specified (C-terminus); reading uncertain) [Comp ID 846]")
9
>>> test_result("DWTCSGDEYTWHCNYE (not fully specified; Gd^T-DWTCSGDEYTWHCNYE) [Comp ID 848]")
9

A: YHACYQAGCYIY (disulfide 4-9 (inferred)) [SEQ ID NO: 108]
B: {Gd^T}-DWTCS[dS]DEYTWHCNYE (disulfide 4-13 (inferred); not fully specified (C-terminus); printed as Gd^T-DWTCSsDEYTWHCNYE; reading uncertain) [Comp ID 836]
C: GQWACSGDEYTWHCNYE (not fully specified; Gd^T-GQWACSGDEYTWHCNYE) [Comp ID 840]
Request: Order the entries by their reported % bound, beginning at the minimum. Please reply with the labels ordered as requested. Many thanks.
Result: C, B, A
(C: 3%, B: 8%, A: 12%)

src = patent US20070293656A1
